Item-by-item account of STK11 functional score
B1: library; numbered along this chain (parent)
chain: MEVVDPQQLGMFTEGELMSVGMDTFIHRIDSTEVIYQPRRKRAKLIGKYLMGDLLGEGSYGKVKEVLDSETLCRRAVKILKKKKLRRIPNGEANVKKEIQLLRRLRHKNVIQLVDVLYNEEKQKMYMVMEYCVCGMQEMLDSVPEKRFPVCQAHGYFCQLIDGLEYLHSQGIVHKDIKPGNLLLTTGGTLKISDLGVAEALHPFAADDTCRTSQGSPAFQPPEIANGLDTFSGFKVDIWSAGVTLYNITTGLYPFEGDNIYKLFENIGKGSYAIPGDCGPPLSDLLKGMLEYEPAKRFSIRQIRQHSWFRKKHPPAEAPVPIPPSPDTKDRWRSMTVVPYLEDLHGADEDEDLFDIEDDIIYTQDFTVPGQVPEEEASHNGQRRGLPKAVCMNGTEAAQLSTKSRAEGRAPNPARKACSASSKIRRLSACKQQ

variants of: B1; assay: STK11 functional score (HeLa growth suppression), rescaled enrichment; synonymous median = 1, nonsense median = 0 (normalised score); details: with HeLa; variant type: missense
reported.metric: STK11 functional score

{"columns": ["mutation.spec", "observed.measurement"],
 "data": [
  ["R211A", 1.28],
  ["S401E", 1.24],
  ["H168I", 0.159],
  ["A406V", 1.52],
  ["F354A", 1.54],
  ["G188A", 0.938],
  ["H154M", 0.597],
  ["E223K", 0.308],
  ["K96N", 1.14],
  ["E16Q", 1.16],
  ["E70C", 1.39],
  ["R297V", -0.053],
  ["N247Q", 1.17],
  ["K388A", 1.17],
  ["A377K", 1.63],
  ["K416N", 0.923],
  ["S307W", 1.47],
  ["P323K", 1.58],
  ["G276V", 1.05],
  ["Q371V", 1.49],
  ["G196R", -0.0503],
  ["I300M", 0.944]
]}
